Each record here notes measured OD 405 nm.
Test system: C1q
Assay: Inhibition of C1q binding: reverse ELISA, PAP immune complexes on C1q coated plates (Example 3)
Design: species or system human
Details: peptide or C1q pre-incubated with PAP 30 minutes; (+) control PAP with no peptide 0.467; lower OD = more inhibition
Positions of bridges follow the written chain, without caps; N, C: chain ends. No end group written: not given here.
endpoint: OD 405 nm

[
  {
    "sequence.text": "DCARHLGELVWCT (disulfide 2-12 (inferred))",
    "endpoint.result": 0.193
  },
  {
    "sequence.text": "RCARHLGELVWCT (disulfide 2-12 (inferred))",
    "endpoint.result": 0.247
  },
  {
    "sequence.text": "PCARHLGELVWCT (disulfide 2-12 (inferred))",
    "endpoint.result": 0.205
  },
  {
    "sequence.text": "DCAAHLGELAACT (disulfide 2-12 (inferred))",
    "endpoint.result": 0.458
  }
]

* * *

Each record here notes measured OD 405 nm.
System: human monomeric IgG
Assay: Inhibition of RF binding to monomeric IgG by additional peptides (Example 7)
Settings: peptides pre-incubated 1 hour with monomeric IgG, then 200 I.U. RF; positive control 1.312
Positions of bridges follow the written chain, without caps; N, C: chain ends. No end group written: not given here.
endpoint: OD 405 nm

[
  {
    "sequence.text": "APPDCAWHLGELVWCT (Synthetically generated polypeptide)",
    "endpoint.result": 1.065
  },
  {
    "sequence.text": "DCAFHLGELVWCT (disulfide 2-12 (inferred))",
    "endpoint.result": 0.962
  },
  {
    "sequence.text": "APPCAFHLGELVWCT (disulfide 4-14 (inferred))",
    "endpoint.result": 1.159
  },
  {
    "sequence.text": "APPCAWHLGELVWCT (disulfide 4-14 (inferred))",
    "endpoint.result": 1.166
  }
]

* * *

System: FcγIIb
Experiment: Inhibition of FcR binding to PAP by additional peptides, FcγIIb coated plates (Example 8)
Settings: OD read at 405 nm; positive control 1.394
Positions of bridges follow the written chain, without caps; N, C: chain ends. No end group written: not given here.

[
  {
    "sequence.text": "APPCAWHLGELVWCT (disulfide 4-14 (inferred))",
    "OD 405 nm": 0.562
  },
  {
    "sequence.text": "APPCAFHLGELVWCT (disulfide 4-14 (inferred))",
    "OD 405 nm": 0.380
  },
  {
    "sequence.text": "APPDCAWHLGELVWCT (Synthetically generated polypeptide)",
    "OD 405 nm": 0.496
  },
  {
    "sequence.text": "DCAFHLGELVWCT (disulfide 2-12 (inferred))",
    "OD 405 nm": 0.510
  }
]

* * *

Test system: FcγIII
Assay: Inhibition of FcR binding to PAP by additional peptides, FcγIII coated plates (Example 8)
Conditions: OD read at 405 nm; positive control 1.588
Protocol: Falcon microtiter plates were coated with 1:10 dilutions of highly purified FcγIIa, FcγIIb and FcγIII, sealed, and incubated for […] at 4° C. […] PAP immune complexes were formed as described in Example 5. PAP (100 μl) were pre-incubated with 100 μl of peptide for one hour. PAP/peptide mixtures were added to the FcR coated plates and incubated for one hour. After washing, plates were incubated with ABTS substrate for 15 minutes and read at 405 nm.
Positions of bridges follow the written chain, without caps; N, C: chain ends. No end group written: not given here.

[
  {
    "sequence.text": "DCAFHLGELVWCT (disulfide 2-12 (inferred))",
    "target.under.test": "FcγIII",
    "OD at 405 nm": 0.810
  },
  {
    "sequence.text": "APPCAWHLGELVWCT (disulfide 4-14 (inferred))",
    "target.under.test": "FcγIII",
    "OD at 405 nm": 0.530
  },
  {
    "sequence.text": "APPDCAWHLGELVWCT (Synthetically generated polypeptide)",
    "target.under.test": "FcγIII",
    "OD at 405 nm": 0.670
  },
  {
    "sequence.text": "APPCAFHLGELVWCT (disulfide 4-14 (inferred))",
    "target.under.test": "FcγIII",
    "OD at 405 nm": 0.880
  }
]
